B1: FLOT1 (parent)
chain: QMAKKAEAFQLYQEAAQLDMLLEK

Variants of: B1
protocol notes: protein stability index of a GFP-peptide fusion (GPS, HEK-293T) (PSI 1-6); higher = more stable;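 note: lentivirally expressed fusions sorted by FACS into six bins by GFP to DsRed ratio, PSI derived from sequencing read proportions per bin multiplied by bin number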
stated conditions: c terminus: a fixed tail appended
Dear colleague, classification is by protein stability index, with ranges listed here: lower range (below 2), middle range (2 to below 3), upper range (3 or more)

Consider `QYAKKAEAFQLYQEAAQLDMLLEK` . To which protein stability index class does it belong?
middle range

Consider `QMAKKAEAFQLYQEAAQLDMLLIK` . To which protein stability index class does it belong?
lower range

Consider `QMAKKAEVFQLYQEAAQLDMLLEK` . To which protein stability index class does it belong?
lower range

Consider `QMAKKAEAFQLYQEAAQLCMLLEK` . To which protein stability index class does it belong?
middle range

Consider `QMAKVAEAFQLYQEAAQLDMLLEK` . To which protein stability index class does it belong?
lower range

Consider `QMAKHAEAFQLYQEAAQLDMLLEK` . To which protein stability index class does it belong?
lower range

Consider `QMAKKAEAFQLYQEAAQNDMLLEK` . To which protein stability index class does it belong?
middle range

Consider `QMAKKAEAFQLYQEAAQLDMLLEC` . To which protein stability index class does it belong?
middle range

Consider `QMAKKAEAFQLYNEAAQLDMLLEK` . To which protein stability index class does it belong?
upper range

Consider `QMAKKAEAFQLYGEAAQLDMLLEK` . To which protein stability index class does it belong?
upper range

Consider `QMAKKAEAFQLYQEAAQLDMLLLK` . To which protein stability index class does it belong?
middle range

Consider `QMAKKAEAFQLYQEEAQLDMLLEK` . To which protein stability index class does it belong?
upper range

Consider `QMAKKAEAFQLYQEAAQLDMCLEK` . To which protein stability index class does it belong?
middle range

Consider `QMAHKAEAFQLYQEAAQLDMLLEK` . To which protein stability index class does it belong?
middle range

Consider `QMAKKAEAFQKYQEAAQLDMLLEK` . To which protein stability index class does it belong?
upper range

Consider `QMAKKAEAFQLYQEAAQLDMPLEK` . To which protein stability index class does it belong?
upper range

Consider `QMAKKAEAFQLYQEAAQLDMLGEK` . To which protein stability index class does it belong?
upper range

Consider `QMAKKAEAFQLYQEAAQLDSLLEK` . To which protein stability index class does it belong?
upper range

Consider `QMAKKAEAFCLYQEAAQLDMLLEK` . To which protein stability index class does it belong?
lower range

Consider `QMAKKAEAFQLYQEAAWLDMLLEK` . To which protein stability index class does it belong?
upper range

Consider `QMNKKAEAFQLYQEAAQLDMLLEK` . To which protein stability index class does it belong?
upper range

Consider `QMAKDAEAFQLYQEAAQLDMLLEK` . To which protein stability index class does it belong?
middle range

Consider `QMAKKAEAFQLYQEQAQLDMLLEK` . To which protein stability index class does it belong?
lower range

Consider `QMAKKAEYFQLYQEAAQLDMLLEK` . To which protein stability index class does it belong?
lower range

Consider `QMAKKAEAFQLYQQAAQLDMLLEK` . To which protein stability index class does it belong?
lower range

Consider `QMAKKAEAFQLYQEAYQLDMLLEK` . To which protein stability index class does it belong?
lower range

Consider `QMAKKAEAFQLYQEAAQLFMLLEK` . To which protein stability index class does it belong?
lower range

Consider `QMAKKAEAFQLYQEAAQLDMLIEK` . To which protein stability index class does it belong?
lower range

Consider `QMAKKAEAFQLYLEAAQLDMLLEK` . To which protein stability index class does it belong?
upper range

Consider `QMTKKAEAFQLYQEAAQLDMLLEK` . To which protein stability index class does it belong?
lower range

Consider `QMAKKAEAFQMYQEAAQLDMLLEK` . To which protein stability index class does it belong?
lower range

Consider `QMQKKAEAFQLYQEAAQLDMLLEK` . To which protein stability index class does it belong?
lower range

Consider `QMAKKAHAFQLYQEAAQLDMLLEK` . To which protein stability index class does it belong?
middle range

Consider `QMAKKAEAFQLYQEAAQLDMLLEI` . To which protein stability index class does it belong?
upper range

Consider `QMAKKAEAFQLYQYAAQLDMLLEK` . To which protein stability index class does it belong?
middle range

Consider `QMAKKAEAFQLYQEARQLDMLLEK` . To which protein stability index class does it belong?
upper range

Consider `QMAKKAEAFQLFQEAAQLDMLLEK` . To which protein stability index class does it belong?
lower range

Consider `QMAKKAEAFQLYQESAQLDMLLEK` . To which protein stability index class does it belong?
middle range

Consider `QMAKKAEMFQLYQEAAQLDMLLEK` . To which protein stability index class does it belong?
middle range

Consider `QMAKKAEAFQLYCEAAQLDMLLEK` . To which protein stability index class does it belong?
middle range

Consider `QMAKKAEAFQLYQEKAQLDMLLEK` . To which protein stability index class does it belong?
lower range

Consider `QMAKKAEAFQLYQEAAQLDMLLEE` . To which protein stability index class does it belong?
upper range
